Entries and their pKd
# assay.target: T1, GFP-9S library array, motif 4 ND N98T;D124T (synthetic construct, N98T;D124T)
# T1 chain: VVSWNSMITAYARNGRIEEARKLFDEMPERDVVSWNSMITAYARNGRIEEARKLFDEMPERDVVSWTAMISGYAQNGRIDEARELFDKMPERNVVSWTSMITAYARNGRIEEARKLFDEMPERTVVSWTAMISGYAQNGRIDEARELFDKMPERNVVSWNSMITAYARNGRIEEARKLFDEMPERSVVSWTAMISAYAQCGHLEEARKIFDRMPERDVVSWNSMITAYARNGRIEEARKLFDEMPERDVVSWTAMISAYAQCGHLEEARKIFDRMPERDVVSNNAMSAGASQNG
# procedure.details: high-throughput RNA pulldown from lysate on Ni-NTA beads; HRP: 50 mM Tris pH 8, 150 mM NaCl, 1 mM beta-mercaptoethanol, 50 ug/ml BSA, 3 ug/ml yeast RNA, 0.5% heparin; ITC and FP: Tris pH 8, 200 mM KCl, 5% glycerol; MST: 50 mM Tris pH 8, 200 mM NaCl, 1 mM DTT, BSA, heparin, 0.05% Tween 20
# setup.conditions: tags: N-terminal His-eGFP; label: 5' Cy5
pKd: −log10 of the molar value.

# binder, pKd
measured = [
    ("AUUACACGUGA (ssRNA) [Cy5-rpoA]", 7.08),
    ("AUUAGACGUGA (ssRNA) [Cy5-rpoA-G]", 7.09),
]
